# Test system: OVCAR-4 ovarian
# Test Protocol: NCI-60 one-dose screen, 48 h (100 = growth as untreated, 0 = no growth, -100 = all killed)
# Protocol Conditions: 10 µM unless noted
The panel holds about 83,000 compounds, 20% with a hit somewhere; the sample as a whole holds those more often.
Quick list: growth per entry.
Express it in %; write the number only.

CCN(CC)c1ccc(/C=N/Nc2nc(-c3ccc(C)cc3)cs2)c(O)c1 = 89.7
COc1ccc(C(=O)/C=C/c2ccc(OCc3ccccc3)c(OC)c2)cc1OC = 25.6
Cc1nc(Nc2ncc(C(=O)Nc3c(C)cccc3Cl)s2)cc(N2CCN(CCCNC(=O)COc3ccc(C4CCC(=O)NC4=O)cc3)CC2)n1 (stereo not drawn) = 85.8
CC12CC[C@@H]3[C@]4(C)COC(c5cn[nH]c5-c5ccc(Br)cc5)O[C@@H]4CC[C@@]3(C)[C@@H]1CC(C1=CCOC1=O)O2 (stereo partly drawn) = 36.1
CC(=O)OC[C@@]1(C)C2CC[C@]3(C)C(CC=C4C5CC(C)(C)CC[C@]5(C(=O)Nc5cccc(C)c5)CC[C@]43C)[C@@]2(C)C[C@@H](OC(C)=O)[C@@H]1OC(C)=O (stereo partly drawn) = 38.6

Ask: Given the compound Cc1cc2nc3c([nH]c2cc1C)c1ccc(=O)cc1n3CCN(C)C , what is its reported growth?
Result: 46.9

Ask: Given the compound CCN1C(=O)/C(=N\N=C(/C)c2ccc3c(c2)Nc2ccccc2S3)c2cc(Cl)ccc21 , what is its reported growth?
Result: 41.6

Ask: Given the compound COC(=O)/C=C/c1cccc2c1C(=O)NC(C)(c1cc3ccccc3oc1=O)N2 (stereo not drawn) , what is its reported growth?
Result: 70

====

# Tested on: TK-10 renal
# Test Protocol: NCI-60 one-dose screen, 48 h (100 = growth as untreated, 0 = no growth, -100 = all killed)
# Protocol Conditions: 10 µM unless noted
# Protocol: Growth inhibition of the TK-10 human tumor cell line is measured as a screen for anti-cancer activity. Cells are grown in 96 well plates and exposed to the test compound for 48 hours. Compounds are tested at a single concentration, which is 10^-5 M for most compounds. The reported endpoint is percent growth (GI% or GIPRCNT), where numbers from 0 - 100% represent growth inhibition, and numbers from -100% - 0 represent cell death. For example, a value of 40 represents 60% growth inhibition. […]
This is part of a sample that, as a whole, favours compounds with a hit. Of some 83,000 tested, about 20% had one in any assay.
Readout Kind: growth (%)
Express it in %; write the number only.

COc1ccc(-c2nnc3ccc(N/N=C/c4ccc(C)cc4)nn23)cc1 = 82.7
COc1ccc(C(=O)/C=C/c2c(F)cccc2Cl)cc1S(N)(=O)=O = 27.4
CCCCCCCCc1ccc(C(=O)Nc2cccc(P(=O)(O)O)c2)cc1 = 105

Next up:
Ask: Given the molecule O=c1[nH]c(=O)c2c(-c3cc4ccccc4oc3=O)ccnc2[nH]1 , what is its reported growth?
Result: 105

====

Quick list: growth per entry.
# Tested on: NCI-H522 lung
# Test Protocol: NCI-60 one-dose screen, 48 h (100 = growth as untreated, 0 = no growth, -100 = all killed)
# Protocol Conditions: 10 µM unless noted
About 83,000 compounds went through this panel and 20% of them were active in at least one assay; those are over-represented in the sample as a whole.
Express it in %; write the number only.

O=C(c1ccccc1)c1ccc2nc(-c3cccc(Cl)c3)[nH]c2c1 = 101
COCOc1cc2c(=O)c(C)c(C(=O)N[C@@H](Cc3ccccc3)C(O)C(=O)NCc3ccccc3)oc2cc1OC (stereo not given in full) = -11
COc1ccc(C(=O)/C=C/c2cccc3ccccc23)cc1S(N)(=O)=O = -67

Ask: Given the compound COc1cc2oc(-c3cccc(C(=O)Nc4ccc(Cl)cc4)c3)cc(=O)c2c(OCCNC(=O)[C@H](CCC(=O)OC(C)(C)C)NC(=O)OC(C)(C)C)c1OC , what is its reported growth?
Result: 89

Ask: Given the compound S=c1c2ccccc2nc2n1CCc1c-2[nH]c2ccccc12 , what is its reported growth?
Result: 56.7

Ask: Given the compound N=C1N=C(SCc2nc3ccccc3[nH]2)NC(=O)/C1=C/c1ccc(Cl)cc1 , what is its reported growth?
Result: 92.7

Ask: Given the compound COc1ccc(/C=C/c2nc3ccccc3n3c(-c4ccc(Cl)cc4)nnc23)cc1 , what is its reported growth?
Result: 64.2

Ask: Given the compound COc1ccc(/C=C/c2nc3ccccc3nc2Nc2cccc(C)c2)cc1 , what is its reported growth?
Result: 83

Ask: Given the compound N/N=C(\N)c1c(N)nc(=S)[nH]c1-c1ccc(Cl)cc1Cl , what is its reported growth?
Result: 95.3

Ask: Given the compound COc1ccc(-c2ccc(SCC(=O)NCCc3ccc(S(N)(=O)=O)cc3)nn2)cc1 , what is its reported growth?
Result: 70

====

# System: SNB-75 CNS
# Test Protocol: NCI-60 one-dose screen, 48 h (100 = growth as untreated, 0 = no growth, -100 = all killed)
# Protocol Conditions: 10 µM unless noted
Compounds without any hit were thinned out: in the full panel of roughly 83,000, 20% have a hit.
Readout Kind: growth (%)
Express it in %; write the number only.

Previously resolved entries follow.
COc1cc(-c2nc3ccc(C)cc3[nH]2)ccc1OCc1nnc(-c2ccc(Br)cc2)o1 = 85.7
NC(=S)Nc1cccc(NC(N)=S)c1 = 97.6
C/C(=N\N=C1/C(=O)Nc2ccccc21)c1ccc2c(c1)Nc1ccccc1S2 = 44
CCCSc1nc(NCCc2c[nH]c3ccccc23)c(C#N)c(-c2ccc(OC)cc2)n1 = 78.9
C#CCOc1cc(N(CC)CC)ccc1C(C(=O)NC(C)(C)C)N(C(=O)C1CCc2cc(F)ccc2O1)c1cc(C)cc(C)c1 (centres undefined) = 45.7

Ask: Observed growth on SNB-75 CNS for CC(C)c1ccc2c(N)c(C(=O)Nc3cccc(C(F)(F)F)c3)sc2n1 , please.
Result: 129

Ask: Observed growth on SNB-75 CNS for Cc1c(C(=O)NNC(=O)Nc2ccc(Cl)cc2)nnn1-c1ccc(Br)cc1 , please.
Result: 90.2

Ask: Observed growth on SNB-75 CNS for COc1ccc(NC(=O)Cn2c3c(sc2=O)[C@H]2[C@@H](O)[C@@H](O)[C@H](O)[C@@H]2CS3)cc1 , please.
Result: 88.5

Ask: Observed growth on SNB-75 CNS for C/C(=N\N=C1/C(=O)Nc2ccc(Cl)cc21)c1ccc2c(c1)Nc1ccccc1S2 , please.
Result: 8.6

====

# Test system: EKVX NSCLC
# Test Protocol: NCI-60 one-dose screen, 48 h (100 = growth as untreated, 0 = no growth, -100 = all killed)
# Protocol Conditions: 10 µM unless noted
The panel holds about 83,000 compounds, 20% with a hit somewhere; the sample as a whole holds those more often.
Grouping by measured growth is done with the following cut points: zone 1 (below 20%), zone 2 (20% to below 60%), zone 3 (60% or more)

Ask: Which class holds COc1cc2c(c(OC)c1OC)C(=O)CC(c1cccc(NC(=O)c3cccc(NC(=O)[C@H](C)NC(=O)OC(C)(C)C)c3)c1)O2 (stereo partly specified) ?
Result: zone 3

Ask: Which class holds CSc1ccccc1NC(=O)c1ccc2nn(/C(C#N)=C/c3ccccn3)nc2c1 ?
Result: zone 1

Ask: Which class holds C=C1CCC2C3(C)COC(c4ccco4)OC3CCC2(C)C1CC(Sc1ccccc1)C1=CCOC1=O (stereo unspecified) ?
Result: zone 3

Ask: Which class holds CN1CCc2c(sc3ncnc(N/N=C/c4ccc(Cl)cc4Cl)c23)C1 ?
Result: zone 2

Ask: Which class holds Cn1cc(-c2nc(N)nnc2-c2c[nH]c3ccc(Br)cc23)c2cccnc21 ?
Result: zone 3

Ask: Which class holds CSc1ccccc1NC(=O)c1ccc2nnn(/C(C#N)=C/c3ccccn3)c2c1 ?
Result: zone 1

Ask: Which class holds COc1ccc(NC(=O)[C@H](CO)NC(=O)OC(C)(C)C)cc1C(=O)Nc1cccc(C2CC(=O)c3c(cc(OC)c(OC)c3OC)O2)c1 (stereo partly specified) ?
Result: zone 3

Ask: Which class holds CN1CCN(c2ccc(C(=O)/C=C/c3ccc(Br)cc3)cc2)CC1 ?
Result: zone 2

Ask: Which class holds CCCCSc1nc(Nc2ccc(S(N)(=O)=O)cc2)c(C#N)c(-c2ccc(Cl)cc2)n1 ?
Result: zone 2

Ask: Which class holds COc1ccc2cc([C@H](C)C(=O)N/N=C/c3ccc(Br)cc3)ccc2c1 ?
Result: zone 3

====

# System: NCI-H23 lung
# Test Protocol: NCI-60 one-dose screen, 48 h
# Protocol Conditions: 10 µM unless noted
Compounds without any hit were thinned out: in the full panel of roughly 83,000, 20% have a hit. Calls of active or inactive are those of the source. Rule for the calls: active = growth percent below 10; inactive = the rest.
Your answer must be one of the following: class 1 = active, class 0 = inactive

Previously resolved entries follow.
COc1ccc(C(=O)Nc2n[nH]c(Nc3ccccc3)c2C#N)cc1 = class 0
CCN1CCN(Cc2ccc(C(=O)Nc3cccc(C#Cc4cccc5[nH]nc(N)c45)c3)cc2C(F)(F)F)CC1 = class 1
COc1ccc(C2=NN(c3ccccc3)C(c3ccc(OCc4ccccc4)c(OC)c3)C2)cc1OC (centres undefined) = class 0
Cc1cc(=O)oc2cc(OCCCOc3ccc(/C=C/C(=O)Nc4ccccc4N)cc3)ccc12 = class 0
O=C(CN1C(=O)/C(=C/c2ccccc2Cl)SC1=S)N1CCOCC1 = class 0

Could you now look at the following compound, please?
Ask: Could you kindly confirm the outcome this assay logged for CCOP(=O)(OCCCl)c1nc(-c2ccc(C)cc2)oc1NCc1ccccc1 (centres undefined) ?
Result: class 0
